Assay: Quantitative High-Throughput drug screen in 47 multiple myeloma cell lines against the NCATS MIPE library collection: JJN3_DSMZ cell viability assay (AID 1918966; also: nearly all actives have a fitted effect of over 50% in size)
Conditions: JJN3 myeloma cells viability, CellTiter-Glo ATP, 48 h; series mostly up to 45.8 µM
Records with an inconclusive call do not appear. Calls of active or inactive are those of the source. Calls follow the shape of the dose curve; as a rule, active = well fitted cell-killing curve with a large enough effect; inconclusive = small, poorly fitted or top-dose-only effect, or effect the other way; inactive = no such curve, though single readings can be large or run the other way.
Outcomes: active, inactive

1) CC1(C)C(N(O)C(=O)Nc2ccc(Cl)cc2)N(c2ccc(Cl)cc2)C(=O)N1CC(=O)NN=CC=Cc1ccc([N+](=O)[O-])o1 (stereo not drawn); active
2) O=C(Nc1ccccc1)Nc1ccc(-c2ccc(C(=O)[C@H]3CCC[C@H]3C(=O)O)cc2)cc1; active
3) CC(NCCc1ccc(O)cc1)C(O)c1ccc(O)cc1 (stereo not drawn); inactive

====

Tested on: ECU
Assay: qHTS profiling for inhibitors of Plasmodium falciparum proliferation (AID 504749); also: nearly all actives have a fitted effect of over 60% in size
Details: P. falciparum in erythrocytes, SYBR Green DNA, 72 h; series mostly up to 28.7 µM
Records with an inconclusive call do not appear. Calls of active or inactive are those of the source. Calls follow the shape of the dose curve; as a rule, active = well fitted inhibition curve with a large enough effect; inconclusive = small, poorly fitted or top-dose-only effect; inactive = flat fitted curve, though single readings scatter.
Outcomes: active, inactive

1) N#CC(c1ccc(Cl)cc1)c1c(Cl)cc(-n2ncc(=O)[nH]c2=O)cc1Cl (stereo not given); inactive
2) N#Cc1c(N(CC(=O)O)CC(=O)O)sc(C(=O)O)c1CC(=O)O; inactive
3) Clc1ccc(COC(Cn2ccnc2)c2ccc(Cl)cc2Cl)c(Cl)c1 (stereo not given); active
4) CN1CC(=O)N2C(Cc3c([nH]c4ccccc34)[C@H]2c2ccc3c(c2)OCO3)C1=O (stereo not given in full); inactive
5) COc1ccnc(CS(=O)c2nc3ccc(OC(F)F)cc3[nH]2)c1OC (stereo not given); inactive

====

Test: qHTS profiling of the MIPE4 collection as inhibitors of Plasmodium falciparum (DD2) proliferation (AID 743345)
Settings: P. falciparum Dd2 in erythrocytes, SYBR Green DNA, 72 h; at 28.5 µM (top of the series) unless noted
Label Yes when parasite growth remaining, % of DMSO control (lower = more inhibition) is strictly below 90%; otherwise label No.

1) CCc1cccc(CC)c1NC(=O)N1Cc2[nH]nc(NC(=O)c3ccc(N4CCN(C)CC4)cc3)c2C1; Yes
2) O=C(O)CCC=CCC[C@@H]1[C@H](N2CCCCC2)[C@@H](O)C[C@@H]1OCc1ccc(-c2ccccc2)cc1; No
3) CC[C@H](NC(=O)[C@H](C)NC)C(=O)N1C[C@@H](O)C[C@H]1Cc1c(-c2[nH]c3cc(F)ccc3c2C[C@H]2C[C@H](O)CN2C(=O)[C@H](CC)NC(=O)[C@H](C)NC)[nH]c2cc(F)ccc12; Yes
4) CC(C)N(CCCNC(=O)Nc1ccc(C(C)(C)C)cc1)C[C@H]1O[C@@H](n2cc(Br)c3c(N)ncnc32)[C@H](O)[C@H]1O; Yes
5) Clc1ccc(C2(c3ccc(-c4cn[nH]c4)cc3)CCNCC2)cc1; Yes
6) Cc1ccc(S(=O)(=O)OCC(=O)Nc2ccc(C(=O)O)c(O)c2)cc1; Yes
7) COc1ccc(-c2ccc3ncc4c(c3c2)n(-c2ccc(N3CCNCC3)c(C(F)(F)F)c2)c(=O)n4C)cn1; Yes
8) C=CC(=O)Nc1cccc(Sc2nc(Nc3ccc(N4CCN(C)CC4)cc3)ncc2Cl)c1; Yes
9) CNc1nc(-c2ccc3c(N)n[nH]c3c2)cc(N2C[C@@H](C(=O)NC3CCCCC3)CC[C@@H]2C)n1; Yes
10) c1ccc(CNc2nc(N3CCOc4ccccc43)nc3c2CCCC3)cc1; Yes
11) COc1c(C)c2c(c(O)c1CC=C(C)CCC(=O)OCCN1CCOCC1)C(=O)OC2; Yes
12) CCc1cc(-c2n[nH]c(C)c2-c2ccc3c(c2)OCCO3)c(O)cc1O; Yes
13) COc1ccnc(CS(=O)c2nc3ccc(OC(F)F)cc3[nH]2)c1OC (stereo not drawn); No
14) NC(N)=Nc1nc(CSCCC(N)=NS(N)(=O)=O)cs1; No
15) CC1C(=O)OC2C(O)C34C5CC(C(C)(C)C)C36C(OC(=O)C6O)OC4(C(=O)O5)C12O (stereo not drawn); No
16) Cc1ccc2c(=O)c3cccc(CC(=O)O)c3oc2c1C; No
17) Cc1ccccc1C(C(=O)NC1CCCCC1)N(C(=O)CNc1ccc(C#N)cc1)c1cccc(F)c1 (stereo not drawn); No

====

Assay: qHTS of pediatric cancer cell lines to identify multiple opportunities for drug repurposing: Confirmatory screen for control Hh wild type fibroblast cells (AID 1347121); also: nearly all actives have a fitted effect of over 70% in size
Conditions: viability qHTS; series mostly up to 45.9 µM
Records with an inconclusive call do not appear. The source made the active and inactive calls. Calls come from the whole dose curve; as a rule, active = well fitted cell-killing curve with a large enough effect; inconclusive = small, poorly fitted or top-dose-only effect, or effect the other way; inactive = flat fitted curve, though single readings scatter.
Outcomes: true (active), false (inactive)

1. O=c1[nH]nc(OCCCc2ccc(Cl)cc2)c(NCc2cccnc2)c1Br; true
2. CCC(=O)N1CCN(c2ccc(-n3c(=O)ccc4cnc5ccc(-c6cnc7ccccc7c6)cc5c43)cc2C(F)(F)F)CC1; false
3. CC1(C)OC2CC3C4CC(F)C5=CC(=O)C=CC5(C)C4C(O)CC3(C)[C@]2(C(=O)CO)O1 (stereo partly drawn); false

====

Molecular target: Nicotinamide N-methyltransferase (Homo sapiens) (UniProt P40261)
Sequence (P40261 whole entry, looked up): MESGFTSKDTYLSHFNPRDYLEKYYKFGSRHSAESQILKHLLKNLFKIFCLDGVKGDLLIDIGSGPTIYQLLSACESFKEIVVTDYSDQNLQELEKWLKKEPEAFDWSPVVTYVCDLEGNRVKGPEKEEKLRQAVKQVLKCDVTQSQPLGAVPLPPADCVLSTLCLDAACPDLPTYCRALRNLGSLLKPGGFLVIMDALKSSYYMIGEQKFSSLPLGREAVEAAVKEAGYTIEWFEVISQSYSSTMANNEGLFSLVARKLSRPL
Assay: Confirmatory Screen for Target Class Profiling of Small Molecule Inhibitors of Methyltransferases (AID 1745852)
Conditions: MTase-Glo luminescence, SAH detection, recombinant enzyme; measured here: NNMT max response; stronger effect = lower value
endpoint: activity

1. c1cc(OCCN2CCCCC2)cc(-c2n[nH]c3ccc(-c4ncn[nH]4)cc23)c1; -12.9%
2. CNC1CCC(N(Cc2cccc(-c3ccncc3)c2)C(=O)c2sc3ccccc3c2Cl)CC1 (stereo not drawn); -65.2%
3. Nc1ncnc2c1c(-c1cccc(OCc3ccccc3)c1)cn2C1CC(CN2CCC2)C1 (stereo not drawn); -29.1%
4. Cc1ccc2c(c1)c1c(n2CCc2ccc(C)nc2)CCN(C)C1; -13.3%
5. Cc1ccccc1-n1c(Cn2nc(-c3cccc(O)c3)c3c(N)ncnc32)nc2cccc(C)c2c1=O; -28.8%
6. Clc1ccc(C2(c3ccc(-c4cn[nH]c4)cc3)CCNCC2)cc1; -22.3%
7. c1ccc(-c2oc3ncnc(NC[C@@H]4CCCO4)c3c2-c2ccccc2)cc1; -46.6%
8. CC1(COc2ccc3c(c2)ncn3-c2ccc3cccc(N4CCC(N)CC4)c3n2)COC1; -29.9%

====

Test: Cytotoxicity counterscreen for NFkB agonists and antagonists (AID 624476);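 also: cells exposed to compound for 48 hours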
Details: NFkB reporter cell line viability counterscreen; series mostly up to 46.1 µM
Results filed as inconclusive are left out. Calls of active or inactive are those of the source. Calls follow the shape of the dose curve; as a rule, active = well fitted curve in the direction sought with a large enough effect; inconclusive = small, poorly fitted or top-dose-only effect, or another doubt; inactive = no such curve, though single readings can be large or run the other way.
Outcomes: 1 (yes) (active), 0 (no) (inactive)

1. C[C@@H](O[C@H]1OCCN(Cc2n[nH]c(=O)[nH]2)[C@@H]1c1ccc(F)cc1)c1cc(C(F)(F)F)cc(C(F)(F)F)c1; 1 (yes)
2. CCCCn1c(=O)n(Cc2ccccc2F)c(=O)c2[nH]c(Cc3ccc(NC(C)=O)cc3)nc21; 0 (no)
3. Cc1ccc(C(=O)N(CCCN)[C@@H](c2nc3cc(Cl)ccc3c(=O)n2Cc2ccccc2)C(C)C)cc1; 1 (yes)
4. COc1cc2nccc(Oc3ccc(NC(=O)Nc4cc(C)on4)c(Cl)c3)c2cc1OC; 0 (no)
5. Cc1cccc(Nc2nc(N[C@@H]3CCCC[C@H]3N)ncc2C(N)=O)c1; 0 (no)
6. CC(C)C[C@H](NC(=O)c1cc2ccccc2s1)C(=O)N1CCN(C(=O)[C@H](CO)NS(=O)(=O)c2ccc(Cl)cc2Cl)CC1; 0 (no)
7. COc1cccc(OC)c1-c1cc(C(=O)NC2(C(=O)O)C3CC4CC(C3)CC2C4)nn1-c1ccnc2cc(Cl)ccc12 (stereo not drawn); 1 (yes)
8. COc1cc2c(cc1OC)CC(=O)N(CCCN(C)C[C@H]1Cc3cc(OC)c(OC)cc31)CC2; 0 (no)

====

Assay: Quantitative High-Throughput drug screen in 47 multiple myeloma cell lines against the NCATS MIPE library collection: KMS12PE_JCRB cell viability assay (AID 1918972); also: nearly all actives have a fitted effect of over 30% in size;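 as to viability: 100% = DMSO only wells and 0% = wells with media alone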
Settings: KMS12PE myeloma viability, CellTiter-Glo ATP, 48 h; series mostly up to 45.8 µM
Records with an inconclusive call do not appear. Active and inactive are the calls of the source. The call rests on the fitted dose curve; in most records, active means well fitted cell-killing curve with a large enough effect; inconclusive means small, poorly fitted or top-dose-only effect, or effect the other way; inactive means no such curve, though single readings can be large or run the other way.
Outcomes: active, inactive

1) O=c1cc(-c2ccc(O)c(O)c2)oc2cc(O)cc(O)c12; inactive
2) O=C(CC12CC3CC(CC(C3)C1)C2)Nc1cccc2nc(NCCNCCO)ccc12; active
3) OC1CCC(Nc2ncc3nc(Nc4c(F)cc(F)cc4F)n([C@@H]4CCOC4)c3n2)CC1 (some centres undefined); active
4) C[C@H](c1ccc(F)cc1CCCC(=O)O)N(c1cc(F)ccc1F)S(=O)(=O)c1ccc(Cl)cc1; inactive

====

Assay: Quantitative High-Throughput drug screen in 47 multiple myeloma cell lines against the NCATS MIPE library collection: H1112_PLB cell viability assay (AID 1918967; also: nearly all actives have a fitted effect of over 30% in size)
Settings: H1112 myeloma cells viability, ATP luminescence, 48 h; series mostly up to 45.8 µM
Results filed as inconclusive are left out. Active and inactive are the calls of the source. Calls follow the shape of the dose curve; as a rule, active = well fitted cell-killing curve with a large enough effect; inconclusive = small, poorly fitted or top-dose-only effect, or effect the other way; inactive = no such curve, though single readings can be large or run the other way.
Outcomes: active, inactive

1) Cc1nc2c([nH]1)CCN(C(=O)c1ccc(NC(=O)c3ccccc3-c3ccccc3)cc1)c1ccccc1-2; inactive
2) Fc1ccc(CNc2ncnc3ccc(F)cc23)cc1; active
3) CO[C@H]1/C=C\O[C@@]2(C)Oc3c(C)c(O)c4c(O)c(c(C=NN5CCN(C6CCCC6)CC5)c(O)c4c3C2=O)NC(=O)C(C)=CC=C[C@H](C)[C@H](O)[C@@H](C)[C@@H](O)[C@@H](C)[C@H](OC(C)=O)[C@H]1C; active
4) CNc1nc(Nc2ccc(C(=O)N3CCOCC3)cc2OC)ncc1Cl; inactive
5) Cc1cc2c(cc1C1(c3ccc(C(=O)O)cn3)CC1)C(C)(C)CCC2(C)C; active
6) CCCCCOC(=O)Nc1nc(=O)n([C@@H]2O[C@H](C)[C@@H](O)C2O)cc1F (stereo partly drawn); inactive
7) NC(=O)c1ccc(N(C(N)=O)c2c(F)cccc2F)nc1-c1ccc(F)cc1F; active
8) CN(C)CCN(C)C(=O)c1ccc(NC(=O)Nc2ccc(-c3nc(N4CCOCC4)c4ccn(CC(F)(F)F)c4n3)cc2)cc1; active

Where do the numbers come from? From PubChem BioAssay (NCATS).
